Test system: Staphylococcus sp.
Assay Summary: In vitro antibacterial evaluation: minimum inhibitory concentration (MIC), broth dilution method
Assay type: cell-based
Experimental Parameters: Staphylococcus aureus (GC 3051); 18 hours at 35° C.
Please provide measured MIC Staphylococcus aureus (GC 3051) for the entries that follow.
Give the value, in units of µg/mL, as a plain number.

Identify measured MIC Staphylococcus aureus (GC 3051) corresponding to CC(c1ccccc1)C1NC(=O)CNC(=O)C(CO)NC(=O)C(C(O)C2CNC(=N)N2C2OC(CO)C(O)C(O)C2O)NC(=O)C(C(O)C2CNC(=N)N2)NC(=O)C(Cc2ccc(OC3OC(CO)C(OC4OC(COC(=O)NCc5ccccc5)C(O)C(O)C4O)C(O)C3O)cc2)NC1=O (stereo not shown) [Example 257b] 0.5

Assign MIC Staphylococcus aureus (GC 3051) to the following record: CCOc1cc(COCC2OC(OC3C(CO)OC(Oc4ccc(CC5NC(=O)C(C(C)c6ccccc6)NC(=O)CNC(=O)C(CO)NC(=O)C(C(O)C6CNC(=N)N6C6OC(CO)C(O)C(O)C6O)NC(=O)C(C(O)C6CNC(=N)N6)NC5=O)cc4)C(O)C3O)C(O)C(O)C2O)ccc1OC (stereo not shown) [Example 238] 4

Look up MIC Staphylococcus aureus (GC 3051) of COc1ccc(COCC2OC(OC3C(CO)OC(Oc4ccc(CC5NC(=O)C(C(C)c6ccccc6)NC(=O)CNC(=O)C(CO)NC(=O)C(C(O)C6CNC(=N)N6C6OC(CO)C(O)C(O)C6O)NC(=O)C(C(O)C6CNC(=N)N6)NC5=O)cc4)C(O)C3O)C(O)C(O)C2O)cc1F (stereo not shown) [Example 237] and report it. 2

----------
Test system: Enterococcus sp.
Assay Summary: In vitro antibacterial evaluation: minimum inhibitory concentration (MIC), broth dilution method
Type: cell-based
Experimental Parameters: Enterococcus faecium (GC 4556)
Quantity: MIC Enterococcus faecium (GC 4556) (µg/mL)
Give just the numeric value; µg/mL need not be written.

Give me measured MIC Enterococcus faecium (GC 4556), please, for this molecule: CC(C)CC(=O)OC1C(OC2C(CO)OC(Oc3ccc(CC4NC(=O)C(C(C)c5cccc(F)c5)NC(=O)CNC(=O)C(CO)NC(=O)C(C(O)C5CNC(=N)N5C5OC(CO)C(O)C(O)C5O)NC(=O)C(C(O)C5CNC(=N)N5)NC4=O)cc3)C(O)C2O)OC(CO)C(O)C1O (stereo not drawn) [Example 264a] 64

Complete the entry with MIC Enterococcus faecium (GC 4556) for CC(C)CC(=O)OC1C(O)C(CO)OC(OC2C(CO)OC(Oc3ccc(CC4NC(=O)C(C(C)c5cccs5)NC(=O)CNC(=O)C(CO)NC(=O)C(C(O)C5CNC(=N)N5C5OC(CO)C(O)C(O)C5O)NC(=O)C(C(O)C5CNC(=N)N5)NC4=O)cc3)C(O)C2O)C1O (stereo not drawn) [Example 265b] 64

Output MIC Enterococcus faecium (GC 4556) of CC(C)CC(=O)OC1C(OC2C(CO)OC(Oc3ccc(CC4NC(=O)C(C(C)c5ccc(F)cc5)NC(=O)CNC(=O)C(CO)NC(=O)C(C(O)C5CNC(=N)N5C5OC(CO)C(O)C(O)C5O)NC(=O)C(C(O)C5CNC(=N)N5)NC4=O)cc3)C(O)C2O)OC(CO)C(O)C1O (stereo not drawn) [Example 261b] 64
